Target or system bovine thrombin (bovine): recorded Fibrin Clot Inhibition listed per item.
Answers are plain numbers.

// below: answered substances
In [3]: df
Out[3]:
                                  substance             result_type   val
0  Suc-Tyr-Glu-Tiq-Ile-Pro-Glu-Glu-Ala-Cha-D-Glu-OH (peptide)  Fibrin Clot Inhibition  0.82
1  Suc-Tyr-Glu-Pip-Ile-Pro-Glu-Glu-Ala-Cha-D-Glu-OH (peptide)  Fibrin Clot Inhibition   1.9
2  Suc-Tyr-Glu-Pro-Ile-Azd-Glu-Glu-Ala-Cha-D-Glu-OH (peptide)  Fibrin Clot Inhibition  0.38
3  Suc-Tyr-Glu-Pro-Ile-Pip-Glu-Glu-Ala-Cha-D-Glu-OH (peptide)  Fibrin Clot Inhibition  0.88

Could you tell me Fibrin Clot Inhibition for each of these substances? They are listed below.
1. Suc-Tyr-Glu-Pro-Ile-Tiq-Glu-Glu-Ala-Cha-D-Glu-OH (peptide)
2. Suc-Tyr-Glu-Azd-Ile-Pro-Glu-Glu-Ala-Cha-D-Glu-OH (peptide)

Return:
1. 0.63
2. 0.51
